- Target Desc: MAP kinase-interacting serine/threonine-protein kinase 2 (Homo sapiens) (UniProt Q9HBH9)
- Sequence (Q9HBH9 whole entry, looked up): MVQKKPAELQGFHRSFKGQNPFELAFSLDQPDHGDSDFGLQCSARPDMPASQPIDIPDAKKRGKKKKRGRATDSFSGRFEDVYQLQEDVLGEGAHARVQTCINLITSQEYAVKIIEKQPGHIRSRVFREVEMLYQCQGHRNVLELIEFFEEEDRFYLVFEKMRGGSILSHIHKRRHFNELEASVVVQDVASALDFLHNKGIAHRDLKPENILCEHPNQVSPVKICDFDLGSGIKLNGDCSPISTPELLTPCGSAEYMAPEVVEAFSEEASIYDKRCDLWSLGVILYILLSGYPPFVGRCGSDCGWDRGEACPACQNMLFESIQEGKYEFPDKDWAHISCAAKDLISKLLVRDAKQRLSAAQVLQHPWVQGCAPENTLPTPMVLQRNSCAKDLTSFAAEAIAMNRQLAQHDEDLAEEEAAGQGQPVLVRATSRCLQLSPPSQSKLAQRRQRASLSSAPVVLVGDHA
- Experimental Context: at 1 µM
residual activity listing for selected molecules.
Readout Label: residual activity (%)

Record Smiles	Target Desc	Readout Label	Result Units	Quantitative Readout
Nc1n[nH]c2nnc(-c3c(-c4ccccc4)nn4ccccc34)cc12	MAP kinase-interacting serine/threonine-protein kinase 2 (Homo sapiens) (UniProt Q9HBH9)	residual activity	%	96
O=C1Nc2cc(Br)ccc2/C1=C1/Nc2ccccc2/C1=N\O	MAP kinase-interacting serine/threonine-protein kinase 2 (Homo sapiens) (UniProt Q9HBH9)	residual activity	%	62
O=C1NC(=O)c2cc(Nc3ccc(F)cc3)c(Nc3ccc(F)cc3)cc21	MAP kinase-interacting serine/threonine-protein kinase 2 (Homo sapiens) (UniProt Q9HBH9)	residual activity	%	106
CNc1cc2c(Nc3cccc(Br)c3)ncnc2cn1	MAP kinase-interacting serine/threonine-protein kinase 2 (Homo sapiens) (UniProt Q9HBH9)	residual activity	%	21
Oc1c2ccccc2c2c3c(cccc13)N=N2	MAP kinase-interacting serine/threonine-protein kinase 2 (Homo sapiens) (UniProt Q9HBH9)	residual activity	%	43
O=[N+]([O-])c1ccc(-c2nc(-c3ccc(F)cc3)c(-c3ccncc3)[nH]2)cc1	MAP kinase-interacting serine/threonine-protein kinase 2 (Homo sapiens) (UniProt Q9HBH9)	residual activity	%	109
Cn1cnc2cc3c(Nc4cccc(Br)c4)ncnc3cc21	MAP kinase-interacting serine/threonine-protein kinase 2 (Homo sapiens) (UniProt Q9HBH9)	residual activity	%	26
O=Nc1c(-c2c(O)[nH]c3ccccc23)[nH]c2ccccc12	MAP kinase-interacting serine/threonine-protein kinase 2 (Homo sapiens) (UniProt Q9HBH9)	residual activity	%	62
Ic1cccc(CSc2nnc(-c3ccncc3)o2)c1	MAP kinase-interacting serine/threonine-protein kinase 2 (Homo sapiens) (UniProt Q9HBH9)	residual activity	%	91
O=C(O)c1ccc2c3c1cccc3c(=O)n1c3ccccc3nc21	MAP kinase-interacting serine/threonine-protein kinase 2 (Homo sapiens) (UniProt Q9HBH9)	residual activity	%	67
CCOc1cc2ncnc(Nc3cccc(Br)c3)c2cc1OCC	MAP kinase-interacting serine/threonine-protein kinase 2 (Homo sapiens) (UniProt Q9HBH9)	residual activity	%	21
O=C1NC(=O)/C(=C\c2ccc3nccnc3c2)S1	MAP kinase-interacting serine/threonine-protein kinase 2 (Homo sapiens) (UniProt Q9HBH9)	residual activity	%	76
CC(C)n1cnc2c(NCc3ccccc3)nc(NCCCO)nc21	MAP kinase-interacting serine/threonine-protein kinase 2 (Homo sapiens) (UniProt Q9HBH9)	residual activity	%	90
NC(=O)c1ccc2[nH]c(-c3ccc(Oc4ccc(Cl)cc4)cc3)nc2c1	MAP kinase-interacting serine/threonine-protein kinase 2 (Homo sapiens) (UniProt Q9HBH9)	residual activity	%	61
O=c1cc(-c2cccc3c2Sc2ccccc2S3)oc(N2CCOCC2)c1	MAP kinase-interacting serine/threonine-protein kinase 2 (Homo sapiens) (UniProt Q9HBH9)	residual activity	%	100
Nc1ccc2ncnc(NCCc3ccc(Oc4ccccc4)cc3)c2c1	MAP kinase-interacting serine/threonine-protein kinase 2 (Homo sapiens) (UniProt Q9HBH9)	residual activity	%	105
N#Cc1cnc2cnc(NCc3cccnc3)cc2c1Nc1ccc(F)c(Cl)c1	MAP kinase-interacting serine/threonine-protein kinase 2 (Homo sapiens) (UniProt Q9HBH9)	residual activity	%	98
COc1cc2ncnc(N3CCN(C(=O)Nc4ccc(Oc5ccccc5)cc4)CC3)c2cc1OC	MAP kinase-interacting serine/threonine-protein kinase 2 (Homo sapiens) (UniProt Q9HBH9)	residual activity	%	92
c1ccc(-c2n[nH]cc2-c2ccnc3ccccc23)nc1	MAP kinase-interacting serine/threonine-protein kinase 2 (Homo sapiens) (UniProt Q9HBH9)	residual activity	%	109
COc1ccc(OC)c2c(=S)c3ccccc3[nH]c12	MAP kinase-interacting serine/threonine-protein kinase 2 (Homo sapiens) (UniProt Q9HBH9)	residual activity	%	97
O=C(Nc1cccc(Nc2nccc(Nc3cccc(C(F)(F)F)c3)n2)c1)C1CC1	MAP kinase-interacting serine/threonine-protein kinase 2 (Homo sapiens) (UniProt Q9HBH9)	residual activity	%	70
CCN(CC)CCCCN1c2ccccc2Oc2ccc(Cl)cc21	MAP kinase-interacting serine/threonine-protein kinase 2 (Homo sapiens) (UniProt Q9HBH9)	residual activity	%	107
O=C1NC(=O)/C(=C/c2ccc3c(c2)OC(F)(F)O3)S1	MAP kinase-interacting serine/threonine-protein kinase 2 (Homo sapiens) (UniProt Q9HBH9)	residual activity	%	109
Nc1nc(Nc2ccc(S(N)(=O)=O)cc2)nn1C(=S)Nc1c(F)cccc1F	MAP kinase-interacting serine/threonine-protein kinase 2 (Homo sapiens) (UniProt Q9HBH9)	residual activity	%	6
Oc1ccc(-c2nc(-c3ccc(F)cc3)c(-c3ccncc3)[nH]2)cc1	MAP kinase-interacting serine/threonine-protein kinase 2 (Homo sapiens) (UniProt Q9HBH9)	residual activity	%	117
N#C/C(=C(\N)Sc1ccc(N)cc1)c1ccccc1C(F)(F)F	MAP kinase-interacting serine/threonine-protein kinase 2 (Homo sapiens) (UniProt Q9HBH9)	residual activity	%	102
Cc1ccc(NC2=CC(=O)c3sc(C)nc3C2=O)cc1	MAP kinase-interacting serine/threonine-protein kinase 2 (Homo sapiens) (UniProt Q9HBH9)	residual activity	%	98
O=C(Nc1cccc(Nc2cc(Nc3cccc(C(F)(F)F)c3)ncn2)c1)C1CC1	MAP kinase-interacting serine/threonine-protein kinase 2 (Homo sapiens) (UniProt Q9HBH9)	residual activity	%	39
Oc1n[nH]c2nnc(-c3c(-c4ccccc4)nn4ccccc34)cc12	MAP kinase-interacting serine/threonine-protein kinase 2 (Homo sapiens) (UniProt Q9HBH9)	residual activity	%	107
c1ccc(-c2n[nH]c3c2oc2ccccc23)cc1	MAP kinase-interacting serine/threonine-protein kinase 2 (Homo sapiens) (UniProt Q9HBH9)	residual activity	%	80
Cc1ccc(S(=O)(=O)/C=C/C#N)cc1	MAP kinase-interacting serine/threonine-protein kinase 2 (Homo sapiens) (UniProt Q9HBH9)	residual activity	%	98
O=C1c2ccccc2-[n+]2ccc3c([nH]c4ccccc43)c21	MAP kinase-interacting serine/threonine-protein kinase 2 (Homo sapiens) (UniProt Q9HBH9)	residual activity	%	55
COc1ccc(C(=O)Nc2sc3c(c2C(N)=O)CCCC3)cc1OC	MAP kinase-interacting serine/threonine-protein kinase 2 (Homo sapiens) (UniProt Q9HBH9)	residual activity	%	99
O=C1Nc2ccc(Br)cc2/C1=C\c1cc2c([nH]1)CCCC2	MAP kinase-interacting serine/threonine-protein kinase 2 (Homo sapiens) (UniProt Q9HBH9)	residual activity	%	108
Cn1nc2c3c(cccc31)C(=O)c1ccccc1-2	MAP kinase-interacting serine/threonine-protein kinase 2 (Homo sapiens) (UniProt Q9HBH9)	residual activity	%	81

* * *

- Target Desc: Interleukin-1 receptor-associated kinase 4 (Homo sapiens) (UniProt Q9NWZ3)
- Sequence (Q9NWZ3 whole entry): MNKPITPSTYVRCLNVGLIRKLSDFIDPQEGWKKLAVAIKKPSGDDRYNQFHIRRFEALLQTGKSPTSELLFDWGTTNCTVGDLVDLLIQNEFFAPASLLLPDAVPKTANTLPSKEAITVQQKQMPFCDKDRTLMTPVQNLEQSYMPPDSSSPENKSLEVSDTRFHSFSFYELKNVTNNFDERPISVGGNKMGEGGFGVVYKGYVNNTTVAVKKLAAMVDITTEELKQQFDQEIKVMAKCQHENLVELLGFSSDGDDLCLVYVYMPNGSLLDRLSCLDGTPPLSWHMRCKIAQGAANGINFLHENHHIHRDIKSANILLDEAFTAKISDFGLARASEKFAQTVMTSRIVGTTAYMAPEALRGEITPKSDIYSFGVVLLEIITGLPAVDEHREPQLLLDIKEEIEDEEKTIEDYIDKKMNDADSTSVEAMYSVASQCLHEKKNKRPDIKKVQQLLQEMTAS
- Experimental Context: at 1 µM
Class (by residual activity) -- lo = under 80%, med = from 80% up to 90%, hi = 90% and over

Record Smiles	Class Label
COc1cc2ncnc(N3CCN(C(=O)Nc4ccc(Oc5ccccc5)cc4)CC3)c2cc1OC	med
CC(C)n1cnc2c(NCc3ccccc3)nc(NCCCO)nc21	hi
Cc1nc2cc3nc(-c4cccs4)cnc3cc2n1C	hi
O=C(Nc1cccc(Nc2nccc(Nc3cccc(C(F)(F)F)c3)n2)c1)C1CC1	lo
CNc1cc2c(Nc3cccc(Br)c3)ncnc2cn1	hi
N#Cc1cnc2cnc(NCc3cccnc3)cc2c1Nc1ccc(F)c(Cl)c1	lo
COc1cccc(-c2cc(=O)c3ccccc3o2)c1N	hi
COc1ccc(CNc2nc(N(CCO)CCO)nc3c2ncn3C(C)C)cc1	lo
c1ccc2c(-c3ccncc3)c[nH]c2c1	hi
COc1ccc(OC)c2c(=S)c3ccccc3[nH]c12	med
CC(=O)c1ccc(N2CCOCC2)cc1O	hi
Cn1nc2c3c(cccc31)C(=O)c1ccccc1-2	lo
c1ccc(-c2n[nH]cc2-c2ccnc3ccccc23)nc1	med
N#C/C(=C(\N)Sc1ccc(N)cc1)c1ccccc1C(F)(F)F	med
Cn1cc(/C=C2\C(=O)Nc3ccc(S(N)(=O)=O)cc32)c2ccccc21	lo
Oc1n[nH]c2nnc(-c3c(-c4ccccc4)nn4ccccc34)cc12	lo
O=c1cc(-c2cccc3c2Sc2ccccc2S3)oc(N2CCOCC2)c1	hi
Cc1cc(Nc2nc(-c3ccccc3)nc3ccccc23)n[nH]1	lo
CO[C@H]1C[C@@H]2CC[C@@H](C)[C@@](O)(O2)C(=O)C(=O)N2CCCC[C@H]2C(=O)O[C@H]([C@H](C)C[C@@H]2CC[C@@H](O)[C@H](OC)C2)CC(=O)[C@H](C)/C=C(\C)[C@@H](O)[C@@H](OC)C(=O)[C@H](C)C[C@H](C)/C=C/C=C/C=C/1C	hi

* * *

residual activity listing for selected compounds.
- Target Desc: Serine/threonine-protein kinase tousled-like 2 (Homo sapiens)
- Experimental Context: at 10 µM
Readout Label: residual activity (%)

Record Smiles	Readout Label	Result Units	Quantitative Readout
CO[C@@H]1[C@H](N(C)C(=O)c2ccccc2)C[C@H]2O[C@]1(C)n1c3ccccc3c3c4c(c5c6ccccc6n2c5c31)C(=O)NC4	residual activity	%	72
O=C1NC(=O)c2c1c1c3ccccc3[nH]c1c1[nH]c3cc(Br)ccc3c21	residual activity	%	86
Cc1cncc2cccc(S(=O)(=O)N3CCCN(C(=O)CN)C[C@H]3C)c12	residual activity	%	82
CC(=O)c1ccc(N2CCOCC2)cc1O	residual activity	%	95
Cc1nc2cc3nc(-c4cccs4)cnc3cc2n1C	residual activity	%	83
Oc1ccc(Nc2nc(-c3ccc(Cl)cc3)cs2)cc1	residual activity	%	103
COc1cc2ncnc(Nc3ccc(O)c(Br)c3)c2cc1OC	residual activity	%	76
COc1cc2ncnc(N3CCN(C(=O)Nc4ccc(Oc5ccccc5)cc4)CC3)c2cc1OC	residual activity	%	88
Nc1n[nH]c2nnc(-c3c(-c4ccccc4)nn4ccccc34)cc12	residual activity	%	82
O=C(Nc1cccc(Nc2cc(Nc3cccc(C(F)(F)F)c3)ncn2)c1)C1CC1	residual activity	%	97
COc1ccc(S(=O)(=O)N(CCO)c2ccccc2CN(C)C/C=C/c2ccc(Cl)cc2)cc1	residual activity	%	85
CCN(CC)CCCCN1c2ccccc2Oc2ccc(Cl)cc21	residual activity	%	91
Nc1cccc(-c2cc3c(Oc4cccc(O)c4)ncnc3[nH]2)c1	residual activity	%	87
Cc1ccc(NC2=CC(=O)c3sc(C)nc3C2=O)cc1	residual activity	%	84
Cc1cc(Nc2nc(-c3ccccc3)nc3ccccc23)n[nH]1	residual activity	%	17
CC(C)n1cnc2c(NCc3ccccc3)nc(NCCCO)nc21	residual activity	%	89
COc1ccc(OC)c2c(=S)c3ccccc3[nH]c12	residual activity	%	87
N#Cc1cnc2cnc(NCc3cccnc3)cc2c1Nc1ccc(F)c(Cl)c1	residual activity	%	47
O=C1NC(=O)/C(=C\c2ccc3nccnc3c2)S1	residual activity	%	91
Oc1c2ccccc2c2c3c(cccc13)N=N2	residual activity	%	38
COc1cc2ncnc(Nc3ccc(Oc4ccccc4)cc3)c2cc1OC	residual activity	%	98
CC[n+]1c(/C=C/N(C)c2ccccc2)n(-c2ccccc2)c2ccc(-c3nc4ccccc4s3)cc21	residual activity	%	80
